- Test system: Plasmodium falciparum
- Procedure summary: In vitro anti-MDR effect in mefloquine resistant TM91C235 cell lines at 5000 ng/ml concentration in the presence of 5 ng/mL mefloquine
- Format: functional
Reported property: Suppression
Write your answer as a measured quantity: the number, then the unit.

Worked cases, answers included:
c1ccc2c(c1)CCc1ccccc1N2CCCCN1CCCC1
100%
CN(CCCCN1c2ccccc2Sc2ccccc21)Cc1ccccc1
13%
CCN(CC)CCCCN1c2ccccc2Sc2ccccc21
100%
CN(C)CCCCN1c2ccccc2CCc2ccccc21
95%
c1ccc(CN(CCCCN2c3ccccc3CCc3ccccc32)Cc2ccccc2)cc1
19%
CN(C)CCCCN1c2ccccc2Sc2ccccc21
92%
c1ccc2c(c1)Sc1ccccc1N2CCCCN1CCCC1
95%
CN(CCCCN1c2ccccc2CCc2ccccc21)Cc1ccccc1
41%

Provide each entry's Suppression from the list below.
1. c1ccc(CN(CCCCN2c3ccccc3Sc3ccccc32)Cc2ccccc2)cc1
2. CCN(CC)CCCCN1c2ccccc2CCc2ccccc21

1: 9%; 2: 100%
